System: RPMI-8226 leukemia
Assay Procedure: NCI tumour cell line growth inhibition, 48 h
Entries and their measured GI50 follow.

# Molecule, System Tested, Measured Result
rows = [
    ("CO[C@H]1C[C@@H]2CC[C@@H](C)[C@@](O)(O2)C(=O)C(=O)N2CCCC[C@H]2C(=O)O[C@H]([C@H](C)C[C@@H]2CC[C@@H](OCCO)[C@H](OC)C2)CC(=O)[C@H](C)C=C(C)[C@@H](O)[C@@H](OC)C(=O)[C@H](C)C[C@H](C)/C=C/C=C/C=C1C", "RPMI-8226 leukemia", "< 0.01 µM"),
    ("CC[n+]1c(/C=C/C=C2\\N(C)c3ccccc3C2(C)C)sc2ccccc21", "RPMI-8226 leukemia", "2.99 µM"),
    ("CN1C(=O)C2(c3ccccc31)N(c1ccc(Cl)cc1)C(=O)C2(c1ccccc1)c1ccccc1 (configuration not stated)", "RPMI-8226 leukemia", "6.25 µM"),
    ("Cc1cc(Cl)nc(N(CCCNc2ccnc3cc(Cl)ccc23)Cc2ccco2)n1", "RPMI-8226 leukemia", "1.04 µM"),
    ("CC1=C(Nc2ccc(N3CCN(C)CC3)cc2)C(=O)c2cncnc2C1=O", "RPMI-8226 leukemia", "3.26 µM"),
    ("CC[C@H](C)[C@H](NC(=O)CN(C)C)C(=O)N(C)[C@H](C[C@@H](OC(C)=O)c1nc(C(=O)NC23CC(C(=O)OC)(C2)C3)cs1)C(C)C", "RPMI-8226 leukemia", "0.0845 µM"),
]

Now for a further molecule.
Entry CCC(=O)c1c(C(F)(F)F)n([O-])c2cc(F)c(F)cc2[n+]1=O has what GI50?
0.394 µM
